pIC50 values by entry
# SYSTEM_NAME: Tyrosine-protein phosphatase non-receptor type 11 (Homo sapiens, UniProt Q06124)
# Sequence (Q06124 whole entry): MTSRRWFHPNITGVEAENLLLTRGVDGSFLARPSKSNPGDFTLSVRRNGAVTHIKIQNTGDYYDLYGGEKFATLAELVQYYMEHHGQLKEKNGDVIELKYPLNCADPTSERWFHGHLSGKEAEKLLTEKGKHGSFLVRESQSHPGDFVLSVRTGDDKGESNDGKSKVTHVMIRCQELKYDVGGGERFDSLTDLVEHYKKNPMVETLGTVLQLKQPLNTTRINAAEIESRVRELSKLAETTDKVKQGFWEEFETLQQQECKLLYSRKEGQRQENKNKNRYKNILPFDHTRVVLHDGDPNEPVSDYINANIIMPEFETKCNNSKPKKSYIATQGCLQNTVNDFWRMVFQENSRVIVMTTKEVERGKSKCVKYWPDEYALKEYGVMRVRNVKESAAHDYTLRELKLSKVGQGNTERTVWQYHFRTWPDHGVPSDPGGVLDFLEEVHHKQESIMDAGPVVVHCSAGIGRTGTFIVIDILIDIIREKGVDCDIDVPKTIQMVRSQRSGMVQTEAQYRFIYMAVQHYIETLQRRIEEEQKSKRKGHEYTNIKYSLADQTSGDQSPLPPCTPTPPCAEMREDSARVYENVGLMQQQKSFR
# PROTOCOL_DESCRIPTION: Allosteric inhibition of N-terminal His-tagged human recombinant SHP2 extracted from Escherichia coli using DiFMUP as substrate preincubated with compound for 60 mins followed by substrate addition and measured after 30 mins by fluorescence based microplate reader analysis
Keep in mind that pIC50 stands for -log10 of concentration in molar terms.

Use the examples below as a reference point.
CC1(N)CCN(c2cnc(Sc3cccc(NC(=O)c4cc(Cl)ccn4)c3Cl)cn2)CC1; 6.66
CC1(N)CCN(c2cnc(Sc3cccc(NC(=O)c4ncccc4Br)c3Cl)cn2)CC1; 7.28

**Query** Quick one: pIC50 of CC1(N)CCN(c2cnc(Sc3cccc(NC(=O)c4ncccc4F)c3Cl)cn2)CC1 ?
**Result** 7.49

**Query** Quick one: pIC50 of CC1(N)CCN(c2cnc(Sc3cccc(NC(=O)c4cccc5ccccc45)c3Cl)cn2)CC1 ?
**Result** 6.48

**Query** Quick one: pIC50 of C[C@@H]1OCC2(CCN(c3cnc(Sc4cccc(NC(=O)c5cccnc5O)c4Cl)cn3)CC2)[C@@H]1N ?
**Result** 9.89

**Query** Quick one: pIC50 of C[C@@H]1OCC2(CCN(c3cnc(Sc4cccc(NC(=O)c5cnccc5O)c4Cl)cn3)CC2)[C@@H]1N ?
**Result** 9.77

**Query** Quick one: pIC50 of C[C@@H]1OCC2(CCN(c3cnc(Sc4cccc(NC(=O)c5ncccc5O)c4Cl)cn3)CC2)[C@@H]1N ?
**Result** 9.23

**Query** Quick one: pIC50 of CC1(N)CCN(c2cnc(Sc3cccc(NC(=O)/C=C/c4ccccc4)c3Cl)cn2)CC1 ?
**Result** 7.40

**Query** Quick one: pIC50 of CC1(N)CCN(c2cnc(Sc3cccc(NC(=O)c4ccccc4)c3Cl)cn2)CC1 ?
**Result** 7.17

---

# PROTOCOL_DESCRIPTION: Tmax in male Sprague-Dawley rat at 2 mg/kg, iv measured for 24 hrs by LC/MS analysis
# Type: ADME, organism-based
# CONDITION_SUMMARY: in vivo
PARAMETER: Tmax (min)
Response body: numeric value in min, unit text excluded.

**Query** Quick one: Tmax of N[C@@H]1c2ccccc2CC12CCN(c1cnc(Sc3cccc(NC(=O)c4cnccc4O)c3Cl)cn1)CC2 ?
**Result** 1.8

---

# PROTOCOL_DESCRIPTION: Cmax in male Sprague-Dawley rat at 10 mg/kg, po measured for 24 hrs by LC/MS analysis
# Type: ADME, organism-based
# CONDITION_SUMMARY: in vivo
PARAMETER: Cmax (ng/mL)
Response body: numeric value in ng/mL, unit text excluded.

**Query** Quick one: Cmax of N[C@@H]1c2ccccc2CC12CCN(c1cnc(Sc3cccc(NC(=O)c4cnccc4O)c3Cl)cn1)CC2 ?
**Result** 70.1

---

pIC50 values by entry
# SYSTEM_NAME: Tyrosine-protein phosphatase non-receptor type 11 (Homo sapiens, UniProt Q06124)
# PROTOCOL_DESCRIPTION: Allosteric inhibition of N-terminal His-tagged human recombinant SHP2 extracted from Escherichia coli using DiFMUP as substrate preincubated with compound for 60 mins followed by substrate addition and measured after 30 mins by fluorescence based microplate reader analysis
Keep in mind that pIC50 stands for -log10 of concentration in molar terms.

Use the examples below as a reference point.
CC1(N)CCN(c2cnc(Sc3cccc(N)c3Cl)cn2)CC1; 7.44
CC1(N)CCN(c2cnc(Sc3cccc(NC(=O)c4cccnc4O)c3Cl)cn2)CC1; 7.95
CC1(N)CCN(c2cnc(Sc3cccc(NC(=O)c4cccnc4Cl)c3Cl)cn2)CC1; 6.44
CC1(N)CCN(c2cnc(Sc3cccc(NC(=O)c4nccs4)c3Cl)cn2)CC1; 7.28

# context switch: different compound, same pIC50
**Query** Form field: pIC50 recorded for N[C@@H]1c2ccccc2CC12CCN(c1cnc(Sc3cccc(NC(=O)c4ncccc4O)c3Cl)cn1)CC2 with Tyrosine-protein phosphatase non-receptor type 11 (Homo sapiens, UniProt Q06124) (enter value)
**Result** 9.22
